PROTOCOL: Toxicity in rat allografted with rat Walker 256 cells intramuscularly
Type: organism-based
RECORDED ENDPOINT: LD50 (mg/kg)
Note: unit mg/kg is implicit; provide only the numeric part.

Observe how each entry below is paired with its result.
1. C=CCN(CC=C)P(=S)(N1CC1C)N1CC1C (centres undefined)    7
2. C=CCN(CC=C)P(=S)(N1CC1)N1CC1    2
3. C=CCN(CC=C)P(=O)(N1CC1)N1CC1C (centres undefined)    7
4. C=CCN(CC=C)P(=O)(N(CC=C)CC=C)N1CC1    75
5. C=CCN(CC=C)P(=S)(N1CC1)N1CC1C (centres undefined)    4

Dear colleague, I am looking for the recorded LD50 of the following compound: C=CCN(CC=C)P(=O)(N1CC1C)N1CC1C (centres undefined)
22

Dear colleague, I am looking for the recorded LD50 of the following compound: C=CCN(CC=C)P(=O)(N(CC=C)CC=C)N1CC1C (centres undefined)
75

Dear colleague, I am looking for the recorded LD50 of the following compound: C=CCN(CC=C)P(=O)(N1CC1)N1CC1
5

* * *

Test system: Musca domestica
PROTOCOL: Toxicity in male house fly assessed as lowest dose required to cause complete sterility administered in sugar
Format: organism-based
TEST CONDITIONS: in vivo, po
RECORDED ENDPOINT: Activity (%)
Note: unit % is implicit; provide only the numeric part.

Observe how each entry below is paired with its result.
1) C=CCN(CC=C)P(=S)(N1CC1C)N1CC1C (configuration not stated)    1
2) C=CCN(CC=C)P(=S)(N1CC1)N1CC1C (configuration not stated)    0.5
3) C=CCN(C1=CCCCC1)P(=O)(N1CC1)N1CC1    1
4) C=CCN(CC=C)P(=O)(N1CC1)N1CC1    0.05
5) C=CCN(CC=C)P(=O)(N1CC1)N1CC1C (configuration not stated)    0.25

Dear colleague, I am looking for the recorded Activity of the following compound: C=CCN(CC=C)P(=S)(N1CC1)N1CC1
0.05

Dear colleague, I am looking for the recorded Activity of the following compound: C=CCN(CC=C)P(=O)(N1CC1C)N1CC1C (configuration not stated)
0.5

* * *

Tested on: Musca domestica
PROTOCOL: Toxicity in male house fly assessed as lowest dose required to cause complete sterility administered in food
Type: organism-based
TEST CONDITIONS: in vivo, po
RECORDED ENDPOINT: Activity (%)
Note: unit % is implicit; provide only the numeric part.

Observe how each entry below is paired with its result.
1) C=CCN(CC=C)P(=S)(N1CC1)N1CC1    0.05
2) C=CCN(CC=C)P(=S)(N1CC1C)N1CC1C (configuration not stated)    1
3) C=CCN(CC=C)P(=O)(N1CC1)N1CC1    0.1
4) C=CCN(CC=C)P(=O)(N1CC1)N1CC1C (configuration not stated)    0.1
5) C=CCN(CC=C)P(=S)(N1CC1)N1CC1C (configuration not stated)    0.25

Dear colleague, I am looking for the recorded Activity of the following compound: C=CCN(C1=CCCCC1)P(=O)(N1CC1)N1CC1
1

Dear colleague, I am looking for the recorded Activity of the following compound: C=CCN(CC=C)P(=O)(N1CC1C)N1CC1C (configuration not stated)
0.25

* * *

PROTOCOL: Therapeutic index, ratio of LD50 for rat allografted with cytoxan-resistant rat Walker 256 cells to ED10 for antitumor activity against rat Walker 256 cells allografted in rat
TEST CONDITIONS: read-out: TI
RECORDED ENDPOINT: selectivity ratio
# output: bare number, no unit

Dear colleague, I am looking for the recorded selectivity ratio of the following compound: C=CCN(CC=C)P(=O)(N1CC1)N1CC1
2.5

* * *

PROTOCOL: Therapeutic index, ratio of LD50 for rat allografted with rat Walker 256 cells to ED10 for antitumor activity against rat Walker 256 cells intramuscularly allografted in rat
Type: cell-based
TEST CONDITIONS: read-out: TI
Reported values of selectivity ratio for individual entries
# output: bare number, no unit

Observe how each entry below is paired with its result.
1) C=CCN(CC=C)P(=O)(N(CC=C)CC=C)N1CC1C (configuration not stated)    125
2) C=CCN(CC=C)P(=O)(N(CC=C)CC=C)N1CC1    30
3) C=CCN(CC=C)P(=O)(N1CC1C)N1CC1C (configuration not stated)    9
4) C=CCN(CC=C)P(=S)(N1CC1)N1CC1C (configuration not stated)    10
5) C=CCN(CC=C)P(=O)(N1CC1)N1CC1C (configuration not stated)    13
6) C=CCN(CC=C)P(=O)(N1CC1)N1CC1    10

Now look at this entry.
Dear colleague, I am looking for the recorded selectivity ratio of the following compound: C=CCN(CC=C)P(=S)(N1CC1C)N1CC1C (configuration not stated)
10

Values from ChEMBL document CHEMBL3272018
